IC50 values, listed per item
# study target: KRas G12S (Homo sapiens, UniProt P01116, G12S)
# Construct: Biotinylated KRas (corresponding to amino acids 1-169, produced at Accelegan Inc.); biotin (biotinylated); purchased Accelegan Inc
# Sequence (P01116 1-169 isoform P01116-2 G12S): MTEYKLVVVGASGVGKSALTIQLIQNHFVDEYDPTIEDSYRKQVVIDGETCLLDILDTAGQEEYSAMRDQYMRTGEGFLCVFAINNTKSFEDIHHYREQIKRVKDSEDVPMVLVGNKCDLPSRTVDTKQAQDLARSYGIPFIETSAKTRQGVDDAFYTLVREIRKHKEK
# assay details: KRas binding assay, TR-FRET displacement of Cy5 labelled tracer
# cond: 60-minute incubation at room temperature, 1% DMSO, pH 7.5

As a guide, the following entries are already answered.
[[record]]
molecule = "CN(CCCC(=O)Oc1ccc(F)cc1F)c1nc(OC[C@@]23CCCN2C[C@H](F)C3)nc2c(F)c(-c3ccc(F)c4sc(N)c(C#N)c34)c(Cl)cc12 [Example 271]"
quantity_kind = "IC50"
reading = "16 nM"

[[record]]
molecule = "Cc1ccn(C(=O)CCNc2cc(-c3noc4c3CCC[C@@]43CCCc4sc(N)c(C#N)c43)nc(N3CCNC[C@@H]3C)n2)n1 [Example 321]"
quantity_kind = "IC50"
reading = "21 nM"

[[record]]
molecule = "O=C(Oc1c(F)cccc1F)[C@@H]1[C@@H]2C[C@H]1CN(c1nc(OCC34CCCN3CCC4)nc3c(F)c(-c4cccc5cccc(F)c45)ncc13)C2 [Example 5]"
quantity_kind = "IC50"
reading = "26500 nM"

[[record]]
molecule = "CCc1c(F)ccc2cc(O)cc(-c3ncc4c(N5C[C@H](C(=O)n6ccc(C)n6)[C@@H](C)C5)nc(OC[C@@]56CCCN5C[C@H](F)C6)nc4c3F)c12 [Example 96]"
quantity_kind = "IC50"
reading = "339 nM"

[[record]]
molecule = "CCc1c(F)ccc2cc(O)cc(-c3ncc4c(N5CCC(C(=O)n6cccn6)CC5)nc(OC[C@@]56CCCN5C[C@H](F)C6)nc4c3F)c12 [Example 4]"
quantity_kind = "IC50"
reading = "9 nM"


For reference, reported IC50 for N#Cc1c(N)sc2c(F)ccc(-c3c(Cl)cc4c(N5CCCC(C(=O)n6ccc(C7CC7)n6)CC5)nc(OC[C@@]56CCCN5C[C@H](F)C6)nc4c3F)c12 (stereo partly drawn) [Example 189] stands at 8 nM
